The measurements presented in this section are drawn from paper PMC3748964.

biological target: MT1 melatonin receptor (Oryctolagus cuniculus, UniProt G1U149)
Sequence (G1U149 1-312): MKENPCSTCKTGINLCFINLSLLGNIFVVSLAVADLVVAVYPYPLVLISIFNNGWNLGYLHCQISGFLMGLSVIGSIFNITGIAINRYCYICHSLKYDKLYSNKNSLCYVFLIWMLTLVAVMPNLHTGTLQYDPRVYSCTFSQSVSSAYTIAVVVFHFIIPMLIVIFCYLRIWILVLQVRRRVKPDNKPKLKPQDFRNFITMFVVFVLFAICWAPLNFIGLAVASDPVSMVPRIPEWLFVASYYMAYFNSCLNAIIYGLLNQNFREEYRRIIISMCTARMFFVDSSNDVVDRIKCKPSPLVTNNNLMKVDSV
Readout kind: pEC50
For clarity, pEC50 is expressed as the negative log10 of concentration in mol/L.

(Q) Output measured pEC50 for this item: COc1ccc2[nH]cc(CCNC(C)=O)c2c1
(A) 8.40
